measured.target: wild-type (wt) DHFR from Plasmodium falciparum (Plasmodium falciparum, UniProt P13922, N108S/R59C)
Construct: The Dihydrofolate Reductase Domain of Plasmodium falciparum Thymidylate Synthase-Dihydrofolate Reductase; made in house
Sequence (P13922 10-228 R59C/N108S): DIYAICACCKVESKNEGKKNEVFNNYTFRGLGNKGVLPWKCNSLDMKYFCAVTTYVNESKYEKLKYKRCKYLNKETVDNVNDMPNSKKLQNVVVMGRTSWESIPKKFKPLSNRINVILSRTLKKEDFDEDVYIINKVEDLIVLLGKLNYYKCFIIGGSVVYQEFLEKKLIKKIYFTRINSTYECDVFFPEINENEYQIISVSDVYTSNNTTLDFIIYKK
protocol: Inhibition of wild-type pfDHFR (spectrophotometric, Ki);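 further: Affinity-purified enzyme, initial reaction rates measured across a range of inhibitor concentrations, Ki obtained by nonlinear least-squares fitting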
Format: biochemical
condition.description: read-out: Ki(wt)
reported.endpoint: pKi
Kindly note that pKi refers to -log10 of the concentration in mol/L and answer with the value alone.

Example entries and their recorded answers appear below.
CC1(C)N=C(N)N=C(N)N1c1ccc(Cl)cc1 [cycloguanil, Cycloguanil, reference compound] = 8.82
CCCCOc1ccc(C2N=C(N)N=C(N)N2OCCCOc2cc(Cl)c(Cl)cc2Cl)cc1 (stereo not drawn) = 8.49
NC1=NC(c2cccc(Oc3ccc(Cl)cc3)c2)N(c2cccc(/C=C/c3ccc(Cl)cc3Cl)c2)C(N)=N1 (stereo not drawn) = 6.66
CCCOc1cccc(C2N=C(N)N=C(N)N2c2cccc(/C=C/c3ccc(Cl)cc3Cl)c2)c1 (stereo not drawn) = 8.89
CCCOc1ccc(C2N=C(N)N=C(N)N2OCCCOc2cc(Cl)c(Cl)cc2Cl)cc1 (stereo not drawn) = 8.77

Now for a further compound.
Data request: Which measured pKi value corresponds to NC1=NC(c2ccc(Cl)cc2)N(c2ccc(Cl)cc2)C(N)=N1 (stereo not drawn) ?
Data returned: 8.12
